Reference source for all entries: patent US8133907B2

molecular target: human recombinant DPIV enzyme (Homo sapiens); construct: Secreted DPIV (lacking membrane anchor) is enriched from HEK293 cell culture supernatant; assay: Human Recombinant DPIV Activity Assay (fluorometric end point, Gly-Pro-AMC substrate); settings: enriched human recombinant DPIV enzyme (21.3 μU/μl), Gly-Pro-AMC 0.02 mM, 12 points concentration response curve, duplicate
Sequence (P27487 29-766 limits assumed): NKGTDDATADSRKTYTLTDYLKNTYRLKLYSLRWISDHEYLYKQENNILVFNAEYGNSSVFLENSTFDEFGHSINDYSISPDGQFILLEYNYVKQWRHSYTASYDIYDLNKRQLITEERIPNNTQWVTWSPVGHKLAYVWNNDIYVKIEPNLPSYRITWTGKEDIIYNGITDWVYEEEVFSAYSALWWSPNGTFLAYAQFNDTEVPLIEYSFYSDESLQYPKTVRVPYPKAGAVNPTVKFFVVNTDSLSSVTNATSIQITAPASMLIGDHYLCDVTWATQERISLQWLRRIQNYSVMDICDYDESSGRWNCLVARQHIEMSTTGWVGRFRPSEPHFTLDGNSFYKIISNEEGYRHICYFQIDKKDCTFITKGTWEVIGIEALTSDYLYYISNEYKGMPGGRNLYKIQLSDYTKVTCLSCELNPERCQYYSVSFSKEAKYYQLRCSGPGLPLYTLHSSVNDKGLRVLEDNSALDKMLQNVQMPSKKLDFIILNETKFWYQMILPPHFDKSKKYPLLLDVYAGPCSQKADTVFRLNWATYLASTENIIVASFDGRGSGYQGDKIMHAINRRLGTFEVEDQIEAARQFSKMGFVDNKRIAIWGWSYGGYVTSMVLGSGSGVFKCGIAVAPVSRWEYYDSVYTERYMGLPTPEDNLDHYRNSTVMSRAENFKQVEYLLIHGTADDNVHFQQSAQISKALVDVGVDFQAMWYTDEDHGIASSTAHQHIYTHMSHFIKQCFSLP
Counter-ions that a name gives are not always drawn.
REPORTED_ENDPOINT: pIC50
pIC50 is defined as minus the log10 of a concentration measured in mol/L.

# COMPOUND, pIC50
records = [
    ("CC(C)(C)NC(=O)c1cccnc1C[C@H](O)[C@H](N)Cc1cc(F)ccc1C(F)(F)F (racemic) [Example 10, Dihydrochloride]", 6.47),
]

Note down pIC50 recorded for Cc1ccc(C)c(C[C@@H](N)[C@@H](O)Cc2ncccc2C(=O)NC(C)(C)C)c1 [Example 8, Dihydrochloride] 7.52

Note down pIC50 recorded for N[C@H](Cc1ccccc1F)[C@@H](O)Cc1ccccn1 [Example 27, Dihydrochloride] 6.63

Note down pIC50 recorded for CC(C)(NC(=O)c1cccnc1C[C@H](O)[C@H](N)Cc1ccccc1F)c1ccccc1 [Example 23, Dihydrochloride] 7.66
